Below is a list of entries, each paired with its recorded IC50 value.
# Target under test: Recombinant human cathepsin A (Homo sapiens)
# Construct: Recombinant human cathepsin A (residues 29-480, with a C-terminal 10-His tag); 10-His (C); purchased R&D Systems 1049-SE
# Assay comment: Cathepsin A inhibitory activity
# Assay type: biochemical
# Cond: read-out: Activity (2): Cathepsin A inhibitory activity, IC50 class

Solved entries:
Molecule	Experimental value
Cc1ccc(C)c(-n2nc(C(=O)NC(CC(=O)O)C3CCCC3)cc2O)c1 (stereo not shown)	1000 to 30000 nM
O=C(O)CC(NC(=O)c1cc(O)n(-c2ccc(F)cc2)n1)c1cccc(C(F)(F)F)c1Cl (stereo not shown)	100 to 1000 nM
O=C(O)CC(NC(=O)c1cc(O)n(-c2cccc(F)c2)n1)c1ccccc1F (stereo not shown)	100 to 1000 nM

Query: Look up IC50 with Recombinant human cathepsin A (Homo sapiens) for this molecule: CC(C)(C)C(O)COc1cc(C(=O)N[C@H](CC(=O)O)c2ccc(Cl)cc2)nn1-c1ccccc1F (stereo partly shown)
Reply: < 100 nM

* * *

# Target under test: Recombinant human cathepsin A (Homo sapiens)
# Construct: Recombinant human cathepsin A (residues 29-480, with a C-terminal 10-His tag); 10-His (C); purchased R&D Systems 1049-SE
# Sequence (P10619 29-312 limits assumed): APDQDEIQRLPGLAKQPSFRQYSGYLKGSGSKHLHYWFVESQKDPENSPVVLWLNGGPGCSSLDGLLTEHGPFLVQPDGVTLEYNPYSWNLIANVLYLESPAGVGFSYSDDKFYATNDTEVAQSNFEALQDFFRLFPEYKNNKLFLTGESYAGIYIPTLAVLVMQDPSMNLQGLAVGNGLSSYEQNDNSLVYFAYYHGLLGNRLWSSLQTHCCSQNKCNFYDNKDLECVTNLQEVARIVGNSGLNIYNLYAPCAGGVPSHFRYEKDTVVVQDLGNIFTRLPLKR
# Sequence (P10619 327-480 limits assumed): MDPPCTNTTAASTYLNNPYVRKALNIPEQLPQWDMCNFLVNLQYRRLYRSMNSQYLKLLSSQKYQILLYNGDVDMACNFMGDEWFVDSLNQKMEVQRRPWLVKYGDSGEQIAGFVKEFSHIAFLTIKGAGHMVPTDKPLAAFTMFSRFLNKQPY
# Assay comment: Cathepsin A inhibitory activity
# Type: biochemical
# Cond: recombinant human cathepsin A; read-out: Activity (2): Cathepsin A inhibitory activity, IC50 class
pIC50: −log10 of the molar value.
Measurement kind: pIC50

Compound	Experimental value
Cc1ccc(C(CC(=O)O)NC(=O)c2cc(O)n(-c3cccc(Cl)c3)n2)c(C)c1 (stereo not shown) [Example 419]	6.00 to 7.00

Query: Tell me the measured pIC50 of COc1ccc(C(CC(=O)O)NC(=O)c2cc(O)n(-c3ccc(F)cc3)n2)c(OC)c1 (stereo not shown) [Example 436] , please.
Reply: 4.52 to 6.00

Query: Tell me the measured pIC50 of O=C(O)CC(NC(=O)c1cc(O)n(-c2cccc(Cl)c2)n1)c1ccc(-c2ccccc2)cc1 (stereo not shown) [Example 421] , please.
Reply: 6.00 to 7.00

Query: Tell me the measured pIC50 of COc1cccc([C@H](CC(=O)O)NC(=O)c2cc(O)n(-c3cccc(F)c3)n2)c1 [Example 429] , please.
Reply: 6.00 to 7.00

Query: Tell me the measured pIC50 of CN(C)c1ccc(C(CC(=O)O)NC(=O)c2cc(O)n(-c3cccc(Cl)c3)n2)c(Cl)c1 (stereo not shown) [Example 463] , please.
Reply: 4.52 to 6.00

Query: Tell me the measured pIC50 of O=C(O)C[C@H](NC(=O)c1cc(O)n(-c2cccc(F)c2)n1)c1cccc(Cl)c1 [Example 430] , please.
Reply: 6.00 to 7.00

Query: Tell me the measured pIC50 of O=C(O)CC(NC(=O)c1cc(O)n(-c2ccc(F)cc2)n1)c1cc(Cl)ccc1Cl (stereo not shown) [Example 493] , please.
Reply: 6.00 to 7.00
